Tested on: OVCAR-4
assay.procedure: NCI tumour cell line growth inhibition, 48 h
Calls of active or inactive are those of the source. Cut-off read from the data, not from the text of the source: active = GI50 up to about 1.1 µM and inactive = higher. *1 amine or outer side, *2 acyl side, *3 side chain or, on linkers, in order; H or OH if unused. Where a SMILES comes first, the peptide text is derived from it. Peptide text beside a SMILES is read from it. [ ]: non-standard residue; d: D form. The star is where a group is joined. ξ: configuration not given here. NMeY = CN[C@@H](Cc1ccc(O)cc1)C(=O)O; Ethylenediamine = C(CN[*:2])N[*:1]; ξNMeL = CNC(CC(C)C)C(=O)O; Cbz = O=C(OCc1ccccc1)*; Lac = C[C@H](O)C(=O)O; ξA = CC(N)C(=O)O
Respond only with the outcome that fits, drawn from active, inactive

Example entries and their recorded answers appear below.
compound	class.assignment
CCOC(=O)c1ccc(-c2cccs2)n1C	inactive
C=CC1(C)CCC2C(=CCC3C(C)(COC4OC(C(=O)O)C(O)C(O)C4O)C(O)CCC23C)C1.C=CC1(C)CCC2C(=CCC3C2(C)CC(O)C(O)C3(C)COC2OC(C(=O)O)C(O)C(O)C2O)C1 (stereo not given)	inactive
CNC1(C(=O)O)CC1	inactive
COC(=O)c1cc(C)ccc1C1CN=NC12Cc1cccc(C)c1C2=O (stereo not given)	inactive
CC(=O)c1ccc2c(c1)C(=O)c1sc(C(C)=O)cc1C2=O	inactive
CCC(C)C(NC(=O)C(NC(=O)C(CC(N)=O)NC(=O)CN)C(C)O)C(=O)NC(C(=O)NC(C)C(=O)NC(C(=O)NC(CCC(=O)O)C(=O)NC(CC(C)C)C(=O)NC(CC(=O)O)C(=O)NC(C(=O)NC(Cc1ccc(O)cc1)C(=O)N1CCCC1C(=O)O)C(C)O)C(C)C)C(C)C (stereo not given) (H-GNTIVAVELDTYP-OH; configuration not given here)	inactive
COc1ccc(C[C@H](N)C(=O)N2C[C@H](CO)C[C@H](n3ccc(=O)[nH]c3=O)C2)cc1	inactive
O=c1[nH]c2ccc(C(F)(F)F)cc2nc1C(F)(F)F	inactive

Query block: Record request — test call for "Cc1ccc([S@+]([O-])c2occc2C=O)cc1"
Result block: inactive

Query block: Do the same for "CCN(CC)/N=N/c1c(C(N)=O)n[nH]c1C" please
Result block: inactive

Query block: Do the same for "Nc1nc(O)c(Br)c(-c2cccc([N+](=O)[O-])c2)n1" please
Result block: inactive

Query block: Do the same for COc1ccc(C[C@@H](C(=O)NCCNC(=O)C(CC(C)C)N(C)C(=O)[C@@H]2CCCN2C(=O)[C@H](C)O)N(C)C(=O)[C@@H]2CCCN2C(=O)[C@H](CC(C)C)NC(=O)C(C)NC(=O)OCc2ccccc2)cc1 (stereo not given in full) (Cbz-[ξA]LP[NMeY](Me)-{Ethylenediamine-ξNMeL-Pro-Lac}) please
Result block: inactive

Query block: Do the same for "O=C(O)CNS(=O)(=O)c1ccc(NC(=O)c2cccc([N+](=O)[O-])c2)cc1" please
Result block: inactive

Query block: Do the same for O=C1CSC2(CC(/C=C/c3ccccc3O)=NN2c2cccc(S(=O)(=O)O)c2)N1c1nc2ccccc2s1 (stereo not given) please
Result block: inactive

Query block: Do the same for CC1=CC(c2ccccc2)OP1(=O)c1ccccc1 (stereo not given) please
Result block: inactive

Query block: Do the same for CCCC[P+](CCCC)(CCCC)C(C(=O)OC)C(C(=O)OC)=C1SC(C(=O)OC)=C(C(=O)OC)S1 (stereo not given) please
Result block: inactive
